system: IGROV1 ovarian; test: NCI-60 one-dose screen, 48 h; conditions: 10 µM unless noted
The panel holds about 83,000 compounds, 20% with a hit somewhere; the sample as a whole holds those more often. Active and inactive are the calls of the source. Rule for the calls: active = growth percent below 10; inactive = the rest.
Hi there, use one of these labels in your reply, thanks! True = active, False = inactive

A selection of reference data follows.
[[record]]
compound = "CN(C)c1ccc(-c2c(C#N)c(N)n3nc(N)c(C#N)c3c2C#N)cc1"
measurementtarget = "IGROV1 ovarian"
assignedclass = "False"

[[record]]
compound = "NC(=S)N/N=C/c1ccc(OC(=O)COc2cc(Cl)c(Cl)cc2Cl)cn1"
measurementtarget = "IGROV1 ovarian"
assignedclass = "False"

[[record]]
compound = "COc1cc(Nc2cc(O)c3c(=O)cc(-c4ccccc4)oc3c2)cc(OC)c1"
measurementtarget = "IGROV1 ovarian"
assignedclass = "False"

[[record]]
compound = "COc1ccc(-c2nc(SC(C)C)nc(NNC(N)=O)c2C#N)cc1"
measurementtarget = "IGROV1 ovarian"
assignedclass = "False"


State the result this test recorded for Cc1cc2nc(-c3ccccc3)c(-c3ccccc3)nc2cc1C .
False

One more compound: COc1cc(NCC(O)CN(CC(C)C)CC(C)C)c2nc(C)ccc2c1 (centres undefined)
False

One more compound: Cc1ccc(S(=O)(=O)Nc2ccc(Cl)cc2)cc1
False

One more compound: CCNC(=O)c1[nH]cc(-c2ccc(OC)cc2)c1-c1cc(OC)c(OC)c(OC)c1
False

###

test system: U251 CNS; experiment: NCI-60 one-dose screen, 48 h (100 = growth as untreated, 0 = no growth, -100 = all killed); settings: 10 µM unless noted
This is part of a sample that, as a whole, favours compounds with a hit. Of some 83,000 tested, about 20% had one in any assay.
Please go through the items and note down their growth.
Numbers only, in %.

Known growth results, listed for orientation:
[[record]]
molecule = "COc1cc(CNC(=O)CCCCC[P+](c2ccccc2)(c2ccccc2)c2ccccc2)c(OC)c2c1OCO2"
measurementtarget = "U251 CNS"
displayunit = "%"
obsvalue = 63.7

[[record]]
molecule = "C=CCn1c(SCC(=O)Nc2ccc(C(=O)/C=C/c3cc(OC)c(OC)c(OC)c3)cc2)nnc1-c1cc(OC)c(OC)c(OC)c1"
measurementtarget = "U251 CNS"
displayunit = "%"
obsvalue = 2.63

[[record]]
molecule = "CCNC(=O)c1[nH]cc(-c2ccc(OC)cc2)c1-c1cc(OC)c(OC)c(OC)c1"
measurementtarget = "U251 CNS"
displayunit = "%"
obsvalue = 55.5

[[record]]
molecule = "N#Cc1cc(-c2nc3ccccc3s2)c(=O)n(NS(=O)(=O)c2ccc(Cl)cc2)c1N"
measurementtarget = "U251 CNS"
displayunit = "%"
obsvalue = 102

[[record]]
molecule = "C1=C2CNCC3=Cc4ccc5ccccc5c4OC23Oc2c1ccc1ccccc21"
measurementtarget = "U251 CNS"
displayunit = "%"
obsvalue = 38.9

[[record]]
molecule = "CC(=O)CCSc1ccc(OC(C)=O)cc1"
measurementtarget = "U251 CNS"
displayunit = "%"
obsvalue = 95.3

[[record]]
molecule = "CC1(c2ccccc2)NC(=O)N(CC(=O)Nc2cccc(I)c2)C1=O (stereo not drawn)"
measurementtarget = "U251 CNS"
displayunit = "%"
obsvalue = 88.7

[[record]]
molecule = "O=C(CNCCO)Nc1ccc2ncnc(Nc3ccc(OCc4cccc(F)c4)c(Cl)c3)c2c1"
measurementtarget = "U251 CNS"
displayunit = "%"
obsvalue = 69.9


Count: 3. Required value per item: growth.
1. COc1cc(OC)cc(C2C3=C(COC3=O)Nc3cc(OC)ccc32)c1 (stereo not drawn)
2. O=c1[nH]nc(-c2ccc(Cl)cc2)cc1Cc1cccc([N+](=O)[O-])c1
3. COc1ccc(/C=C2\COc3ccc(-c4ccccc4)cc3C2=O)cc1O

1: 16.2; 2: 92.1; 3: 5.71

###

Please go through the items and note down their growth.
test system: HCT-15 colon; test: NCI-60 one-dose screen, 48 h (100 = growth as untreated, 0 = no growth, -100 = all killed); settings: 10 µM unless noted
This is part of a sample that, as a whole, favours compounds with a hit. Of some 83,000 tested, about 20% had one in any assay.
Answers are plain numbers, in %.

Count: 7. Required value per item: growth.
1. O=[N+]([O-])c1cccc(-c2nc(-c3ccc(Cl)cc3Cl)cn2-c2ccccc2)c1
2. CC(C)CN(C(=O)c1ccc(Cl)cc1)c1c(N)n(CC(C)C)c(=O)[nH]c1=O
3. O=C(/C=C\c1ccc(OCCCCCC[P+](c2ccccc2)(c2ccccc2)c2ccccc2)cc1)c1ccc2c(c1)OCCO2
4. C=C1C(=O)O[C@H]2[C@H]1CC/C(CNC(=O)/C=C/c1ccc(Br)cc1)=C\CC[C@@]1(C)O[C@@H]21
5. C/C(=C(/c1ccccc1)c1ccc(OCC(O)CN2CCOCC2)cc1)c1ccccc1 (centres undefined)
6. Cn1c(COC(=O)N2CCCCC2)nc2c(N3CCOCC3)nc(-c3ccccc3)nc21
7. c1ccc(-c2nnc(Nc3ccc4c(c3)OCCO4)o2)c(NCc2ccncc2)c1

1. -6.56
2. 111
3. 22
4. -64.2
5. 53.8
6. -43
7. 6.86

Count: 2. Required value per item: growth.
1. Cc1nc2sc(C(=O)Nc3cccc(Br)c3)c(N)c2cc1C(=O)c1ccc(C(F)(F)F)cc1
2. COc1ccc(-c2nc3sccn3c2/C=C/C(=O)c2cc(OC)c(OC)c(OC)c2)cc1

1: 88.1; 2: 40.2

###

test system: SK-MEL-2 melanoma; test: NCI-60 one-dose screen, 48 h; conditions: 10 µM unless noted
Compounds without any hit were thinned out: in the full panel of roughly 83,000, 20% have a hit. Calls of active or inactive are those of the source. How the source made its calls: active means growth percent below 10; inactive means the rest.
Hi there, use one of these labels in your reply, thanks! active, inactive

A selection of reference data follows.
[[record]]
compound = "Cc1cccc(C)c1-c1cc(Cc2ccc(Cl)cc2)c(=O)[nH]n1"
assignedclass = "inactive"

[[record]]
compound = "Cc1ccc(S(=O)(=O)Nc2ccc(Cl)cc2)cc1"
assignedclass = "inactive"

[[record]]
compound = "Cc1c2c(cc[n+]1Cc1ccccc1)c1ccc(OCC3CCCCC3)cc1n2CC1CCCCC1"
assignedclass = "active"

[[record]]
compound = "O=C(CN1CCOCC1)Nc1ccc2ncnc(Nc3ccc(OCc4cccc(F)c4)c(Cl)c3)c2c1"
assignedclass = "inactive"

[[record]]
compound = "COc1cccc(CCC(=O)c2cc3c(N)c(C(=O)Nc4cccc(Cl)c4C)sc3nc2C)c1"
assignedclass = "inactive"

[[record]]
compound = "c1ccc(C2CC(c3cccc(Nc4ccncc4)c3)=NN2c2ccccc2)cc1 (stereo not given)"
assignedclass = "inactive"

[[record]]
compound = "CC(C)NC(=O)N1C(=O)CCC1NNC(=O)c1ccc([N+](=O)[O-])cc1 (stereo not given)"
assignedclass = "inactive"

[[record]]
compound = "CCN(CC)S(=O)(=O)c1cccc([N+](=O)[O-])c1"
assignedclass = "inactive"


State the result this test recorded for COc1ccc2nc(N=Nc3c(O)ccc4ccccc34)sc2c1 .
inactive

One more compound: O=C(Nc1ccccc1)Oc1ccccc1-c1ccccc1
inactive

###

test system: SNB-75 CNS; assay: NCI-60 one-dose screen, 48 h; conditions: 10 µM unless noted
About 83,000 compounds went through this panel and 20% of them were active in at least one assay; those are over-represented in the sample as a whole. The source made the active and inactive calls. The calls were made as follows: active = growth percent below 10; inactive = the rest.
Hi there, use one of these labels in your reply, thanks! active, inactive

State the result this test recorded for C(=C\c1n(Cc2ccc3ccccc3c2)c(-c2ccccc2)c(-c2ccccc2)[n+]1Cc1ccc2ccccc2c1)/c1ccccc1 .
active

One more molecule: C#CCNC(=O)[C@H](Cc1ccccc1)NC(=O)[C@]12CC[C@@H](C(=C)C)[C@@H]1[C@H]1CC[C@@H]3[C@@]4(C)Cc5c([nH]c6ccccc56)C(C)(C)[C@@H]4CC[C@@]3(C)[C@]1(C)CC2
inactive

One more molecule: Nc1nc(N)nc(NCc2ccccc2)n1
inactive

One more molecule: C#Cc1cccc(NC(=O)Nc2ccc(NC(=O)CCl)cc2)c1
active

One more molecule: COc1ccc(/C=N/NC(=O)c2cccc3cc[nH]c23)cc1O
inactive

One more molecule: COc1ccc(-c2c[nH]c(C(=O)O)c2-c2cc(OC)c3c(c2OC)OCO3)cc1
inactive

###

test system: MOLT-4 leukemia; assay: NCI-60 one-dose screen, 48 h (100 = growth as untreated, 0 = no growth, -100 = all killed); details: 10 µM unless noted
The panel holds about 83,000 compounds, 20% with a hit somewhere; the sample as a whole holds those more often.
Please go through the items and note down their growth.
Give bare numbers, in %.

Known growth results, listed for orientation:
[[record]]
molecule = "Cc1cc(NC(=O)c2cnc(N3CCN(CCOCCOCCOCCOCCC(=O)N[C@H](C(=O)N4C[C@H](O)C[C@H]4C(=O)N[C@@H](C)c4ccc(-c5scnc5C)cc4)C(C)(C)C)CC3)cn2)c2ncccc2c1"
propertylabel = "growth"
displayunit = "%"
obsvalue = 1.53

[[record]]
molecule = "COc1cc(C2CC(c3cccc(Nc4ccncc4)c3)=NN2c2cc(Cl)cc(Cl)c2)cc(OC)c1OC (configuration not stated)"
propertylabel = "growth"
displayunit = "%"
obsvalue = -22.7

[[record]]
molecule = "Cc1ccc2[nH]c(=O)cc(-n3nncc3COc3ccc(C=O)cc3)c2c1"
propertylabel = "growth"
displayunit = "%"
obsvalue = 108


Count: 5. Required value per item: growth.
1. COc1c(Cl)cc(Cl)c2ccc(C=C3C(=O)NC(=S)NC3=O)nc12
2. COc1cc(/C=C2\C(=O)N(Cc3ccc(Cl)cc3)c3ccccc32)cc(OC)c1OC
3. CCCCCOc1ccc(/C=N/Nc2cc(C)nc3ccc(Br)cc23)cc1
4. CCCCCCOc1ccc(C(=N)N(CCCC)CCCC)c2ccccc12
5. Cc1nc2sc(C(=O)Nc3ccccc3)c(N)c2cc1C(=O)c1ccc(C(F)(F)F)cc1

1: 105; 2: 8.46; 3: -21.8; 4: -38.4; 5: 108

Count: 3. Required value per item: growth.
1. COc1cc(C2NC(c3cc(OC)c(OC)c(OC)c3)C(C#N)(C#N)C2(C#N)C#N)cc(OC)c1OC (configuration not stated)
2. C[C@]12CCc3nc(Nc4cccc(O)c4)sc3C1=CC[C@@H]1[C@@H]2CC[C@]2(C)/C(=N\NC(N)=S)CC[C@@H]12
3. O=S(=O)(NCCNc1nccc(-c2c(-c3ccc(F)c(O)c3)nc3occn23)n1)c1ccccc1

[96.8, 5.41, 47.8]

Count: 3. Required value per item: growth.
1. Nc1nc(N)nc(NCc2ccccc2)n1
2. CCN1C(=O)/C(=c2\sc3n(c2=O)NC2C(N=3)N(CC)C(=O)N2CC)c2ccccc21 (configuration not stated)
3. S=c1[nH]cccc1-c1nnc2n1Nc1nc3ccccc3cc1CS2

[95.4, 58.9, 104]

Count: 3. Required value per item: growth.
1. O=C1NC(=S)NC(=O)C1=Cc1cn(Cc2ccccn2)c2ccccc12
2. NC(=O)c1cccc(-c2cc(C(N)=O)ccc2Cl)c1
3. CC[C@@]12C=CCN3CC[C@]4(c5cc(NC(=O)COc6cc(OCC(=O)Nc7cc8c(cc7OC)N(C)[C@H]7[C@@](O)(C(=O)OC)[C@H](OC(C)=O)[C@]9(CC)C=CCN%10CC[C@]87[C@@H]%109)cc7oc(-c8ccccc8)cc(=O)c67)c(OC)cc5N(C)[C@@H]4[C@](O)(C(=O)OC)[C@H]1OC(C)=O)[C@H]32

1. 66
2. 26.9
3. 13.1
